Task for the reader: assign each of the following compounds its reported growth reduction.
- Tested on: Staphylococcus aureus Sa2 (MRSA, cystic fibrosis isolate)
- Assay comment: growth reduction vs untreated control (viable cell count); higher = stronger antibacterial activity; extreme values may be limits of the assay
- Measurement context: 0.1 mM; 24 h
Where a name gives a salt, the structure may show the parent alone.
Give just the number in %; leave the unit off.

Which growth reduction is reported for this compound? CCOC(=O)[C@H](CCc1ccccc1)N[C@@H](C)C(=O)N1[C@H](C(=O)O)C[C@@H]2CCC[C@@H]21
92

Please report the recorded growth reduction for O=C(Nc1ccc([N+](=O)[O-])cc1Cl)c1cc(Cl)ccc1O [Niclosamide] .
100

Report growth reduction for CC(=O)O[C@@H]1CC[C@@]2(C)[C@@H](CC[C@]3(C)[C@@H]2C(=O)C=C2[C@@H]4[C@@H](C)[C@H](C)CC[C@]4(C)CC[C@]23C)[C@@]1(C)C(=O)O please.
100

Entry CCCCc1oc2ccc(NS(C)(=O)=O)cc2c1C(=O)c1ccc(OCCCN(CCCC)CCCC)cc1 [Dronedarone (Hydrochloride)] : reported growth reduction = ?
100

Request the reported growth reduction associated with CN(Cc1cnc2nc(N)nc(N)c2n1)c1ccc(C(=O)N[C@@H](CCC(=O)O)C(=O)O)cc1 [Methotrexate]
95

I would be grateful if you could share the reported growth reduction for CC1=CC(=O)c2ccccc2C1=O .
100

Which growth reduction value belongs to Cc1cn(-c2cc(NC(=O)c3ccc(C)c(Nc4nccc(-c5cccnc5)n4)c3)cc(C(F)(F)F)c2)cn1 ?
92

Consider the compound shown here: CC(OC(=O)c1ccc(Cc2c(O)c3ccccc3oc2=O)cc1)(C(F)(F)F)C(F)(F)F What is its recorded growth reduction?
100

What value of measured growth reduction is listed for COc1cc(C)c2c(Oc3cccc(C(F)(F)F)c3)c(OC)cc(NC(C)CCCN)c2n1 (stereo unspecified) [Tafenoquine (Succinate)] ?
100

Which growth reduction value belongs to Clc1ccc(COC(Cn2ccnc2)c2ccc(Cl)cc2Cl)c(Cl)c1 (stereo unspecified) [Miconazole (nitrate)] ?
100

Fill in: growth reduction of COC(=O)/C=C/C(=O)OCCN1C(=O)CCC1=O [Diroximel fumarate] is ___
100

What measured growth reduction goes with Cc1c(C)c2c(c(C)c1O)CCC(C)(COc1ccc(CC3SC(=O)NC3=O)cc1)O2 (stereo unspecified) ?
100

Which value of growth reduction has been reported for C=C[C@@](C)(/C=C/c1ccc(O)cc1)CCC=C(C)C in the records?
100

For the compound CCCCCOc1ccccc1/C(=C\SC)n1ccnc1 [Neticonazole (hydrochloride)] , what growth reduction is on record?
100

For the compound shown here, C#C[C@]1(O)CC[C@H]2[C@@H]3CCc4cc(OC)ccc4[C@H]3CC[C@@]21C , give the reported growth reduction.
93

Which growth reduction value is on record for O=C(NCc1ccc(Oc2ccccc2)cc1)c1nc(-c2cc(Br)c(O)c(Br)c2)no1 ?
100

Need growth reduction, item O=c1ccc2ccc(O)c(O)c2o1
98

// growth reduction lookup, key: Oc1c(Cl)cc(Cl)cc1Sc1cc(Cl)cc(Cl)c1O
100

Could you tell me which growth reduction is on file for CC(=O)c1cc2c(o1)C(=O)c1ccccc1C2=O ?
100

What value of growth reduction has been reported for the following compound? CCN(CC)CCNC(=O)c1c(C)[nH]c(/C=C2\C(=O)Nc3ccc(-c4csc(-c5ccccc5)n4)cc32)c1C
100

Value lookup for growth reduction; key = O=c1[nH]c(=O)n([C@H]2C[C@H](O)[C@@H](CO)O2)cc1/C=C/Br
100
